# target or test system: GP IIb-IIIa (αIIbβ3) (Homo sapiens, UniProt P05106+P08514)
# Construct: purchased Calbiochem
# Sequence (P08514 32-887 limits assumed): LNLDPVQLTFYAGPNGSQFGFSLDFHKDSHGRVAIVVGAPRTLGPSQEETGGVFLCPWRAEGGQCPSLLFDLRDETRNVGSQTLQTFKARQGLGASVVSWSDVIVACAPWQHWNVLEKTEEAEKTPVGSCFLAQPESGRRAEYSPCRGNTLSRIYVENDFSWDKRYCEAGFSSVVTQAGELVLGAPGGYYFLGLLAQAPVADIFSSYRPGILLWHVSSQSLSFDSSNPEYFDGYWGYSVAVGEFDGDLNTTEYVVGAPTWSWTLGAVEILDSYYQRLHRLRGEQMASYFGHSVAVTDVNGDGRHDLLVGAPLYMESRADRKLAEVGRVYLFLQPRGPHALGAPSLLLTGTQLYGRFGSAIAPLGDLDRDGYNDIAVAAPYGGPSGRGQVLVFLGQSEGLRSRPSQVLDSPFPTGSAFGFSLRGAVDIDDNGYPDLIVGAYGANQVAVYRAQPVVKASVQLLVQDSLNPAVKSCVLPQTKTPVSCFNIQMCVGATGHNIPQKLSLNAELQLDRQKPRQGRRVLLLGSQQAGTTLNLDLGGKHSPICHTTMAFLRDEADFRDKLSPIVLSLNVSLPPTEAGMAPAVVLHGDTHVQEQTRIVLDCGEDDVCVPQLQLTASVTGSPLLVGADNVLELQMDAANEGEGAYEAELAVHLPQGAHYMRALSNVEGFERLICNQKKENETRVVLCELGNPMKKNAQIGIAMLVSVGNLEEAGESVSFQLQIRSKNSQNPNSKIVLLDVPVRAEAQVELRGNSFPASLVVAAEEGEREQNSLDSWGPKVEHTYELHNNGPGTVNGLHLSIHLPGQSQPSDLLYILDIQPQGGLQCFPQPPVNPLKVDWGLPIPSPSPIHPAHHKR
# Sequence (P08514 891-1039 partner limits assumed): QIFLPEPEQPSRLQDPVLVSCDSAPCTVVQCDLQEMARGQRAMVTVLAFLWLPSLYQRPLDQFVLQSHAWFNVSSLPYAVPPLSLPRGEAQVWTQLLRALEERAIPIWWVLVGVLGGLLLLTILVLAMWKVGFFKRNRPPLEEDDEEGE
# Sequence (P05106 27-788): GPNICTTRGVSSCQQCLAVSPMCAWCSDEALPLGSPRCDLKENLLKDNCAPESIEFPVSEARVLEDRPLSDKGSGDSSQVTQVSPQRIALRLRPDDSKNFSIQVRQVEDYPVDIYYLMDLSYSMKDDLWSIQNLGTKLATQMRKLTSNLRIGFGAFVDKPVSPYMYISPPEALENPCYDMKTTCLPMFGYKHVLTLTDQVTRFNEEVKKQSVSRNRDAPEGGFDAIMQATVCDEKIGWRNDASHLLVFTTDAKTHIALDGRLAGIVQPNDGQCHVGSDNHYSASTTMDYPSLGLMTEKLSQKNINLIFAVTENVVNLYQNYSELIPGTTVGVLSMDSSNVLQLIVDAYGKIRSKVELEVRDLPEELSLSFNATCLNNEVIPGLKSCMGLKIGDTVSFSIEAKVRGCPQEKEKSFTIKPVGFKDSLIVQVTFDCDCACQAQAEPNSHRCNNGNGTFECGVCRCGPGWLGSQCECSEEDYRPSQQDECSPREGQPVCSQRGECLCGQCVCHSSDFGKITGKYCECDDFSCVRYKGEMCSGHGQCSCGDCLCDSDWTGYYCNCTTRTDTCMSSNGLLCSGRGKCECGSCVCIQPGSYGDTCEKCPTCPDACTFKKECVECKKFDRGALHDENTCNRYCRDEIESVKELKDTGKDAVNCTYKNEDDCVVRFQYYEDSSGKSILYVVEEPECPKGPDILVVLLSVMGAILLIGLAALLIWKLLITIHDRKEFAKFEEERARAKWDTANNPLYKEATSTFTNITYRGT
# assay method text: Fibrinogen binding to immobilized GP IIb-IIIa (αIIbβ3)
# condition notes: biotinylated-fibrinogen (10 nM) binding to immobilized αIIbβ3; read-out: IC50 αIIbβ3
measured property: pIC50
Keep in mind that pIC50 stands for -log10 of concentration in molar terms.

// assay GP IIb-IIIa (αIIbβ3) (Homo sapiens, UniProt P05106+P08514), entry N=C(N)NCCCNC(=O)c1ccc(C(=O)NC(CC(=O)O)c2ccccc2)s1 (stereo not shown) [Compound VIII] , pIC50 value = 5.23
